- Species on record: Rattus norvegicus
- experiment_description: Open TG-GATES - Regimen: Single
- Format: toxicity, organism-based, Sprague-Dawley
- Set-up: regimen Single, gender Male, age 6 weeks
- condition_summary: in vivo, po, 10 mg/kg, 6 h, tissue Plasma, route gavage, dose level Low
recorded_metric: LDH
Include the unit after the number when you answer.

Reference set (3 entries):
CN(C)CCCN1c2ccccc2CCc2ccccc21 :: 139.2 IU/L
CC1=C(/C=C/C(C)=C/C=C/C(C)=C/CO)C(C)(C)CCC1 :: 223 IU/L
CN(C)CCN(Cc1cccs1)c1ccccn1 :: 202.4 IU/L

[in] Which LDH value belongs to "CN(C)CCCN1c2ccccc2CCc2ccc(Cl)cc21" ?
[out] 93 IU/L

###

- Species on record: Rattus norvegicus
- experiment_description: Open TG-GATES - Regimen: Single
- Format: toxicity, organism-based, Sprague-Dawley
- Parameters: regimen Single, gender Male, age 6 weeks
- condition_summary: in vivo, po, 1000 mg/kg, 9 h, tissue Plasma, route gavage, dose level High
Could you please report measured DBIL for the items listed next?
Answers are plain numbers, in mg/dL.

NC(N)=Nc1nc(CSCCC(N)=NS(N)(=O)=O)cs1 [FAMOTIDINE] :: 0.052
COC1=CC(=O)C[C@@H](C)[C@]12Oc1c(Cl)c(OC)cc(OC)c1C2=O [GRISEOFULVIN] :: 0.07
COc1ccc2[nH]c([S+]([O-])Cc3ncc(C)c(OC)c3C)nc2c1 (stereo not given) [OMEPRAZOLE] :: 0.08

Provide reported DBIL for each item, in the same order as listed.
1. CC(C)OC(=O)C(C)(C)Oc1ccc(C(=O)c2ccc(Cl)cc2)cc1 [FENOFIBRATE]
2. CCOC(=O)CCC(=O)O[C@H]1[C@H](O[C@@H]2[C@@H](C)[C@H](O[C@H]3C[C@@](C)(OC)[C@@H](O)[C@H](C)O3)[C@@H](C)C(=O)O[C@H](CC)[C@@](C)(O)[C@H](O)[C@@H](C)C(=O)[C@H](C)C[C@@]2(C)O)O[C@H](C)C[C@@H]1N(C)C [ERYTHROMYCIN ETHYLSUCCINATE]

[out]
0.014
0

###

- Species on record: Rattus norvegicus
- experiment_description: Open TG-GATES - Regimen: Daily Repeat
- Format: toxicity, organism-based, Sprague-Dawley
- Set-up: regimen Daily Repeat, gender Male, age 6 weeks
- condition_summary: in vivo, po, 300 mg/kg, 72 h, tissue Plasma, route gavage, dose level Middle, time 3 day
So I've got a bunch of molecules here, and I need their GLC values.
Give bare numbers, in mg/dL.

Check out these entries, answers already filled in.
COC1=CC(=O)C[C@@H](C)[C@]12Oc1c(Cl)c(OC)cc(OC)c1C2=O [GRISEOFULVIN] :: 218.2
NC(N)=Nc1nc(CSCCC(N)=NS(N)(=O)=O)cs1 [FAMOTIDINE] :: 186.2
CCOc1ccc(NC(=O)CC(C)O)cc1 (stereo not given) [BUCETIN] :: 184
CCOC(=O)CCC(=O)O[C@H]1[C@H](O[C@@H]2[C@@H](C)[C@H](O[C@H]3C[C@@](C)(OC)[C@@H](O)[C@H](C)O3)[C@@H](C)C(=O)O[C@H](CC)[C@@](C)(O)[C@H](O)[C@@H](C)C(=O)[C@H](C)C[C@@]2(C)O)O[C@H](C)C[C@@H]1N(C)C [ERYTHROMYCIN ETHYLSUCCINATE] :: 192.6

The record that follows has no GLC shown yet.
[in] Requested read-out: GLC. Entry: COc1ccc2[nH]c([S+]([O-])Cc3ncc(C)c(OC)c3C)nc2c1 (stereo not given) [OMEPRAZOLE]
[out] 220.6
